Ref: patent US20260258115A1

// reported Neutralization IC50 (RSV subtype A) per item
- targetDesc: RSV F on RSV-A2 virus (Respiratory Syncytial Virus (RSV-A2), UniProt P03420 26-574)
- assayProtocol: cell-based or functional assay

For orientation, consider the following solved cases.
binder	Neutralization IC50 (RSV subtype A)
ADI-41496 (antibody, V domains shown) VH: QVQLVQSGAEVKKPGASVKVSCKASGYTFTSDDINWVRQATGQGLEWMGWMNPNSGDTGYAQKFQGRVTMTRDTSISTAYMELSSLRSEDTAVYYCARVRIQCSGGRCSYWFFDLWGRGTLVTVSS VL: QSALTQPASVSGSPGQSITISCIGTSSDVGNYNLVSWYQHHPGKAPKVMIYEVNERPSGVSNRFSGSKSGNTASLTISGLQAEDEADYYCCSYAGRSTWVFGGGTKLTVL	> 25 µg/mL
ADI-41521 (antibody, V domains shown) VH: EVQLVESGGGLVQPGRSLRLSCAASGFTFDDFAMDWVRQVPGKGLEWVSGISWNGVSKDYAGSVKGRFTISRDNAKNSLYLQMNSLRAEDTALYFCAKARRDVYNWGDAFDIWGQGTMVTVSS VL: DIRLTQSPGTLSLSPGERATLSCRASQPLNSNYLAWYRQKPGQAPRLLIFDASSRATGVPDRISGSGSGTDFTLTVSRLEPEDIAVYYCQQYASSPWTFGLGTKVEIK	> 25 µg/mL
ADI-41458 (antibody, V domains shown) VH: EVQLLESGSGLVKPSQTLSLTCAVSGDSLNSALYSWSWIRQPPGKGLEWIGYIYYSGSTYYNSSLKSRVTISIDRSKNQFSLNLNSVTAADTAVYYCASLQTGYSSGWFFDFWGPGTLVTVSS VL: EIVLTQSPGTLSLSPGERATLSCRASQSVSRTYLTWYQQKPGQAPRLLIYGASNRATGIPDRFSGSGSGTDFTLTISRLEPEDFAVYYCQQYGSTPLFGQGTKVEIK	> 25 µg/mL

// sample ADI-41485 (antibody, V domains shown) VH: EVQLLESGPGLVRPSETLSLTCTVSGGSLDSGPHYWNWIRQPPGKGLEWIGYIYYSVSTNYNPSLKSRVTISMDTSKNQFSLNLTSVTAADTAVYYCASFQLIYGPQIWGQGKKVTVSS VL: DIVLTQSPSSVSASVGDRVTITCRASQAISSWLIWSQHKPGKAPKVLIYAASSLQSGVPSRFSGSGSGTDFTLTISSLQPEDFATYYCQQANNFPLTFGGGTKVEIK , its Neutralization IC50 (RSV subtype A) was > 25 µg/mL

// sample ADI-41537 (antibody, V domains shown) VH: EVQLLESGGGLVQPGGSLRLSCAASEFTFSRYPMSWVRQAPGKGLEWVSGISVSGDSTYYADSVKGRLTISRDNSKNTLYLQMNSLRAEDTAVYYCAIDHYDTSGYYGMDVWGQGTTVTVSS VL: DIRLTQSPLSLPVTPGEPASISCRSSRSLLRSNGYNYLDWYLQKPGQSPQLLIYLGSNRASGVPDRFSGSGSGTDFTLKISRVEAEDVGVYYCMQALQSSYTFGQGTKLEIK , its Neutralization IC50 (RSV subtype A) was > 25 µg/mL

// sample ADI-41516 (antibody, V domains shown) VH: EVQLLESGPRLVKPSETLSLTCIVSGGFISYDYWSWIRQPAGKGLEWIGRIYAGGIPKYNPSLKSRVTMSLDMSNNQFSLRLKSVTAADSAVYYCARAEPCSGDCFLGENPFDSWGQGTLVTVSS VL: QSVLTQPPSASGTPGQRVTISCSGSSSSIGSNYVYWYQQLPGTAPKLLIHKDNERPSGVPDRFSGSKSGTSASLAISGLRSEDEGDYSCAAWDDSLSGWVFGGGTKLTVL , its Neutralization IC50 (RSV subtype A) was 0.08 µg/mL

// sample ADI-41508 (antibody, V domains shown, also called Ab 786; Antibody Number 786) VH: QVQLVQSGAEVRKPGASVKVSCKASGYGFRSYDLTWVRQAPGKGLEWVGWISAYSGGTNYAQTLQGRVTMTTDTSTSTAYMELRSLGPDDTAVYYCARAGLYGSGSPDGFDSWGQGTLVTVSS VL: SYELTQPPSVSVSPGQTASITCSGDKLGDKYASWYQQRPGQSPVLVISQDTKRPSGIPERFSGSTSGNTAILTISGTQAMDEADYYCLAWDSSTAWVFGGGTKLTVL , its Neutralization IC50 (RSV subtype A) was 0.1 µg/mL

// sample ADI-41504 (antibody, V domains shown, also called Ab 783; Antibody Number 783) VH: EVQLLESGPGLLKTSETLSLTCTVSDGSISGYYWTWIRQPPGKGLECIGYISYSGSTNYSPSLKSRVTISVDTSKNQFSLKLSSVTAADTAVYYCAKIGGYCNPTKCYGWFDPWGQGTLVTVSS VL: QPVLTQPPSVSGAPGQRVTISCTGSSSNIGAGYDVHWYQQLPGTAPKLLIFGNTNRPSGVPDRFSGSKSGTSASLAITGLQAEDEAAYYCQSYDSSLFYVVLGGGTKLTVL , its Neutralization IC50 (RSV subtype A) was > 25 µg/mL

// sample ADI-41525 (antibody, V domains shown, also called Ab 797; Antibody Number 797) VH: QVQLVQSGAEMKKPGSSVKVSCKASGRTFKYFALNWMRRAPGHGLEWIGGDIPISGSTNYAQKFQGRVTITADESASTAYMEVSRLRSDDTAVYYCASLHYDVSTGFSDAFDIWGQGTMVTVSS VL: QSVLTQPASVSGSPGQSITISCTGTSSDVGAYNYVSWYQHHPGKAPKLMIFDVSNRPSGVSNRFSGSKSGNTASLTISGLQAEDEADYYCSSYRSTFSYVFGTGTKVTVL , its Neutralization IC50 (RSV subtype A) was > 25 µg/mL

// sample ADI-41461 (antibody, V domains shown) VH: QVQLVQSGAEVKKPGASVKVSCRASGYTFSSYDINWVRQATGQGLEWMGWMSPNSANTGYAQKFQGRVTMTRDTSINTAYMELSSLSSEDTAVYYCARFLGYCSGGSCYPGYGMDVWGQGTTVTVSS VL: EIVLTQSPDSLAVSLGERATINCKSSQNVLYSSNNKDYLSWYQQKPGQPPKLLIYWASTRESGVPDRFSGSGSGTDFTLTINSLQAEDVAVYYCQQYYGTPYTFGQGTKLEIK , its Neutralization IC50 (RSV subtype A) was > 25 µg/mL
